# System: Mycobacterium tuberculosis
# methodDescription: Antimycobacterial activity against Mycobacterium tuberculosis H37Rv ATCC 27294 by Alamar blue assay
# Assay type: functional
Numbered stars: 1 amine (or outer) side, 2 acyl side, 3 side chain; on linkers, the order of the positions; unused ones are H or OH. Bridge positions count the residues as written; N and C are the ends. Square brackets hold non-standard residues; d marks the D form. Peptide text beside a SMILES is read from it. * marks the point of attachment. Phe(3R-OH) = O=C([C@@H](N[*:1])[C@H](O[*:3])c1ccccc1)[*:2]; NMeTrp(4-OMe) = CN[C@@H](Cc1c[nH]c2cccc(OC)c12)C(=O)O; NMeaIle = CC[C@@H](C)[C@H](NC)C(=O)O; NMe2Val = CC(C)[C@@H](C(=O)*)N(C)C; NMeT = CN[C@H](C(=O)O)[C@@H](C)O; NMeL = CN[C@@H](CC(C)C)C(=O)O; NMeV = CN[C@H](C(=O)O)C(C)C
measuredProperty: MIC (µg/mL)
One number for each entry, in µg/mL.

Reported MIC ( CC[C@@H](C)[C@@H](C(=O)N[C@@H]1C(=O)N(C)[C@@H]([C@@H](C)O)C(=O)N[C@@H](C(C)C)C(=O)N(C)[C@@H](CC(C)C)C(=O)N[C@@H](C(C)C)C(=O)N(C)[C@@H](C(C)C)C(=O)N(C)[C@@H](Cc2c[nH]c3cccc(OC)c23)C(=O)N[C@@H](C(C)C)C(=O)N[C@@H]([C@H](O)c2ccccc2)C(=O)N[C@@H](C(C)C)C(=O)O[C@@H]1C)N(C)C(=O)[C@@H](NC(=O)[C@H](C(C)C)N(C)C)C(C)C (NMe2Val-V[NMeaIle]T[NMeT]V[NMeL]V[NMeV][NMeTrp(4-OMe)]V[Phe(3R-OH)]V; ester 3-C) ) = 0.26
